I'd appreciate it if you could supply TGI values for the items below.
System: NCI/ADR-RES ovarian
Measurement notes: NCI tumour cell line growth inhibition, 48 h

Give the value of TGI reported for the following: COc1cc(OCc2cccc(-c3ccc(C(O)c4nccs4)cc3)c2C)cc(OC)c1C=O (stereo not given)
14.7 µM

Give the value of TGI reported for the following: N#Cc1c(N)nc(N2CCOCC2)c(C#N)c1-c1ccncc1
> 100 µM

Give the value of TGI reported for the following: O=C(/C=C/c1ccccc1)Oc1cccc(O)c1
> 100 µM

Give the value of TGI reported for the following: Cn1cc(C2=C(c3ccc(N)cc3)C(=O)NC2=O)c2ccccc21
> 25 µM

Give the value of TGI reported for the following: N=C(N)C1CN(CCc2c[nH]c3ccccc23)C(=O)NC1=O (stereo not given)
> 100 µM

Give the value of TGI reported for the following: Cc1ccc(C2SCC(=O)N2c2ccc(-n3c(-c4ccccc4)nc4ccccc4c3=O)cc2)cc1 (stereo not given)
63.1 µM

Give the value of TGI reported for the following: C=CCc1cccc2cc(C(=O)NCc3ccccc3)c(=N)oc12
> 100 µM

Give the value of TGI reported for the following: COC(=O)C1c2cc3c(cc2C(OC2OC(C)C(OC)C(C)(OC)C2OC)CC1(C)O)C(=O)c1c(O)cc2c(c1C3=O)OC1OC2(C)C(O)C([N+](C)(C)[O-])C1O (stereo not given)
> 64.3 µM

Give the value of TGI reported for the following: COc1cccc(C(=O)Oc2ccc(OS(=O)(=O)c3ccc(C)cc3)cc2)c1C#N
> 100 µM

Give the value of TGI reported for the following: C/C=C/C(CC(O)(C(F)(F)F)C(F)(F)F)=N/NC(N)=S
> 10 µM

====

Tested on: OVCAR-3 ovarian
Measurement notes: NCI tumour cell line growth inhibition, 48 h
Threshold check on TGI: at or above 30 µM gives condition met, strictly below gives condition not met.

Textbook exercise: given the entry C#CCOc1cccc(-c2ncc3cc(NC(=O)CCl)ccc3n2)c1 , state whether its TGI is greater than or equal to 30 µM.
condition not met

Textbook exercise: given the entry CC(=O)Nc1sc(Br)cc1S(=O)(=O)c1ccc(Cl)cc1 , state whether its TGI is greater than or equal to 30 µM.
condition met

Textbook exercise: given the entry O=C1c2ccccc2C(=O)N1CCn1ccc(NC(c2ccccc2)(c2ccccc2)c2ccccc2)nc1=O , state whether its TGI is greater than or equal to 30 µM.
condition met

Textbook exercise: given the entry CCCCCCCCCCCCCC(=O)OCC(C[As](=O)(O)O)OC(=O)CCCCCCCCCCCCC (centres undefined) , state whether its TGI is greater than or equal to 30 µM.
condition met

Textbook exercise: given the entry O=C(O)C(O)C(O)C(O)C(O)c1nc2ccccc2s1 (centres undefined) , state whether its TGI is greater than or equal to 30 µM.
condition met

Textbook exercise: given the entry COC(=O)C1c2cc3c(cc2C(OC2OC(C)C(OC)C(C)(OC)C2OC)CC1(C)O)C(=O)c1c(O)cc2c(c1C3=O)OC1OC2(C)C(O)C([N+](C)(C)[O-])C1O (centres undefined) , state whether its TGI is greater than or equal to 30 µM.
condition met

Textbook exercise: given the entry Cc1cn2c(=O)c3ncn(C4OC(CO)C(O)C4O)c3n(C)c2n1 (centres undefined) , state whether its TGI is greater than or equal to 30 µM.
condition met

Textbook exercise: given the entry COc1cc(OCc2cccc(-c3ccc(C(O)c4nccs4)cc3)c2C)cc(OC)c1C=O (centres undefined) , state whether its TGI is greater than or equal to 30 µM.
condition not met

Textbook exercise: given the entry CC1(C)OC(C(=O)Nc2cc3c4ccccc4ccc3c3ccccc23)C(C(=O)N2CCCCC2)O1 (centres undefined) , state whether its TGI is greater than or equal to 30 µM.
condition met

The measurements presented in this section are drawn from PubChem BioAssay (NCI).
